RUN DESCRIPTION: Selectivity index, ratio of CC50 for human H1HeLa cells to EC50 for Human rhinovirus B14 infected in human H1HeLa cells
Type: toxicity, cell-based
PARTICULARS: read-out: Ratio CC50/EC50
Would you mind telling me the reported selectivity ratio of each entry?

Reported selectivity ratio ( CCOC(=O)c1cc2ccc(Oc3ccnc(C(=O)NC)c3)cc2s1 ) = > 1.7

// sample CCOC(=O)c1sc2cc(Oc3cccc(C(=O)NC)c3)ccc2c1C , its selectivity ratio was 1.5

So, CCOC(=O)c1cc2ccc(Oc3ccccc3)cc2s1 ? Its selectivity ratio was > 1.5

Quick note, selectivity ratio for CCOC(=O)c1ccc2cc(Oc3ccnc(C(=O)NC)c3)ccc2c1 landed at 17

molecule CNC(=O)c1cc(Oc2ccc3c(C)c(C(=O)OC(C)C)n(C)c3c2)ccn1 , selectivity ratio observed: 5.9

// selectivity ratio lookup, molecule = CCOC(=O)c1ccc2ccc(Oc3ccnc(C(=O)NC)c3)cc2n1 , result: > 1.8

Reported selectivity ratio ( CCOC(=O)c1cc2ccc(Oc3ccnc(C(=O)NC)c3)c(Cl)c2s1 ) = > 8.1

Recorded result, CCOC(=O)c1sc2cc(Oc3ccnc(C(=O)NC)c3)ccc2c1Cl , selectivity ratio: 4

For CNC(=O)c1cc(Oc2ccc3ccc(C(=O)OC(C)C)cc3c2)ccn1 the molecule record lists selectivity ratio as 7.7

Looking up CCOC(=O)c1sc2cc(Oc3ccnc(C(=O)NC)c3)ccc2c1CC , I see its selectivity ratio listed as 2.6

Quick note, selectivity ratio for CCOC(=O)c1sc2cc(Oc3ccnc(C(=O)NC)c3)ccc2c1C#N landed at > 1.2
